tested on: kochia (Kochia scoparia); assay: Test D pre-/postemergence: kochia; type: in vivo; details: Preemergence; 125 g ai/ha; scale 0 to 100
Mark each entry met if its Plant response rating, Kochia sits below 70, and not met for all others.

Examples with answers:
- Cc1nn(-c2ccc(C(F)(F)F)cc2)nc1Oc1ccnc(C(F)(F)F)c1: not met
- FC(F)(F)COc1nn(-c2ccc(C(F)(F)F)cc2)nc1Cc1ccnc(C(F)(F)F)c1: not met
- Cc1nn(-c2ccc(C(F)(F)F)cn2)nc1Cc1cccc(C(F)(F)F)c1: met

In the following, a different molecule is considered.
Asked: Plant response rating, Kochia strictly < 70 for this molecule? `Cc1nn(-c2ccc(C(F)(F)F)c(F)c2)nc1Oc1ccnc(C(F)(F)F)c1`
Given back: not met

###

system: ryegrass, Italian (Italian ryegrass, Lolium multiflorum); assay: Test C pre-/postemergence: ryegrass, Italian; assay type: in vivo; conditions: Preemergence, 62 g ai/ha; scale of 0 to 100, 0 is no effect, 100 is complete control
property-name: Plant response rating, Ryegrass, Italian
Could you keep your reply to the number by itself?

* CCOc1nn(-c2ccc(C(F)(F)F)cc2)nc1Cc1ccnc(C(F)(F)F)c1 | 10
* COc1nn(-c2ccc(C(F)(F)F)cc2)nc1Cc1ccnc(C(F)(F)F)c1 | 45
* Cc1nn(-c2ccc(F)cc2F)nc1Oc1ccnc(C(F)(F)F)c1 | 30
* Cc1nn(-c2ccc(C(F)(F)F)cc2)nc1Oc1ccnc(C(F)(F)F)c1 | 90
* Cc1nn(-c2ccc(F)c(C(F)(F)F)c2)nc1Cc1ccnc(C(F)(F)F)c1 | 80

Next molecule, Plant response rating, Ryegrass, Italian to be filled in.
Asked: Retrieve Plant response rating, Ryegrass, Italian measured for `CCc1nn(-c2ccc(C(F)(F)F)c(F)c2)nc1Oc1ccnc(C(F)(F)F)c1` and print it.
Given back: 80

###

system: galium (catchweed bedstraw, Galium aparine); test: Test C pre-/postemergence: galium; type: in vivo; settings: Preemergence, 125 g ai/ha; scale 0 to 100, 0 no effect, 100 complete control
Reported Plant response rating, Galium values follow for various molecules
Could you keep your reply to the number by itself?

* CCc1nn(-c2ccc(C(F)(F)F)cc2)nc1Oc1ccnc(C(F)(F)F)c1 | 100
* CCOc1nn(-c2ccc(C(F)(F)F)cc2)nc1Cc1ccnc(C(F)(F)F)c1 | 80
* CCc1nn(-c2ccc(C(F)(F)F)c(F)c2)nc1Oc1ccnc(C(F)(F)F)c1 | 100
* FC(F)Oc1nn(-c2ccc(C(F)(F)F)cc2)nc1Cc1ccnc(C(F)(F)F)c1 | 100
* Fc1ccc(-n2nc(Cc3ccnc(C(F)(F)F)c3)c(OC(F)F)n2)cc1 | 80
* CCCc1nn(-c2ccc(F)c(F)c2)nc1Oc1ccnc(C(F)(F)F)c1 | 100
* CCc1nn(-c2ccc(C(F)(F)F)cc2)nc1Cc1ccnc(C(F)(F)F)c1 | 100

Next molecule, Plant response rating, Galium to be filled in.
Asked: Retrieve Plant response rating, Galium measured for `CCCc1nn(-c2ccc(F)cc2)nc1Oc1ccnc(C(F)(F)F)c1` and print it.
Given back: 100

###

Reported Plant response rating, Johnsongrass values follow for various molecules
System: johnsongrass (Sorghum halepense)
Assay: Test F pre-/postemergence: johnsongrass
Format: in vivo
Conditions: Preemergence, 31 g ai/ha; scale 0 to 100, 0 no effect, 100 complete control
Description: […] Treated plants and controls were maintained in a greenhouse for 14 to 21 days, after which time all species were compared to controls and visually evaluated. […]
Could you keep your reply to the number by itself?

Use the examples below as a reference point.
- Cc1nn(-c2ccc(F)cc2F)nc1Oc1ccnc(C(F)(F)F)c1 [Compound 146]: 50
- CCOc1nn(-c2ccc(F)cc2)nc1Cc1ccnc(C(F)(F)F)c1 [Compound 196]: 65
- Cc1nn(-c2ccc(C(F)(F)F)c(F)c2)nc1Oc1ccnc(C(F)(F)F)c1 [Compound 148]: 20
- CCCc1nn(-c2ccc(F)c(F)c2)nc1Oc1ccnc(C(F)(F)F)c1 [Compound 172]: 50

Asked: Retrieve Plant response rating, Johnsongrass measured for CCc1nn(-c2ccc(F)c(F)c2)nc1Oc1ccnc(C(F)(F)F)c1 [Compound 171] and print it.
Given back: 0

# credit: patent US9302999B2
